From: patent US20240301319A1

assay: Log P (n-octanol/water) of perfuming compounds (Tables 4 to 10); conditions: n-octanol/water; perfuming compounds having a green note

[
  {
    "molecule": "C=CCOC(=O)COc1ccccc1 [ALLYL PHENOXYACETATE]",
    "Log P (n-octanol/water)": 2.04
  },
  {
    "molecule": "CCCC(C)C(=O)OCC (racemic) [(+−)-ETHYL 2-METHYLPENTANOATE]",
    "Log P (n-octanol/water)": 3.05
  },
  {
    "molecule": "COC(=O)OC1CC/C=C\\CCC1 (racemic)",
    "Log P (n-octanol/water)": 3.02
  },
  {
    "molecule": "Cc1ccc(OCC=O)cc1",
    "Log P (n-octanol/water)": 1.99
  },
  {
    "molecule": "CC(=O)CCC=C(C)C",
    "Log P (n-octanol/water)": 2.05
  }
]
